# measured_target: angiotensin I converting enzyme (Cavia porcellus)
# Construct: isolated guinea pig ileum preparation
# Sequence (H0UWL7 33-1302): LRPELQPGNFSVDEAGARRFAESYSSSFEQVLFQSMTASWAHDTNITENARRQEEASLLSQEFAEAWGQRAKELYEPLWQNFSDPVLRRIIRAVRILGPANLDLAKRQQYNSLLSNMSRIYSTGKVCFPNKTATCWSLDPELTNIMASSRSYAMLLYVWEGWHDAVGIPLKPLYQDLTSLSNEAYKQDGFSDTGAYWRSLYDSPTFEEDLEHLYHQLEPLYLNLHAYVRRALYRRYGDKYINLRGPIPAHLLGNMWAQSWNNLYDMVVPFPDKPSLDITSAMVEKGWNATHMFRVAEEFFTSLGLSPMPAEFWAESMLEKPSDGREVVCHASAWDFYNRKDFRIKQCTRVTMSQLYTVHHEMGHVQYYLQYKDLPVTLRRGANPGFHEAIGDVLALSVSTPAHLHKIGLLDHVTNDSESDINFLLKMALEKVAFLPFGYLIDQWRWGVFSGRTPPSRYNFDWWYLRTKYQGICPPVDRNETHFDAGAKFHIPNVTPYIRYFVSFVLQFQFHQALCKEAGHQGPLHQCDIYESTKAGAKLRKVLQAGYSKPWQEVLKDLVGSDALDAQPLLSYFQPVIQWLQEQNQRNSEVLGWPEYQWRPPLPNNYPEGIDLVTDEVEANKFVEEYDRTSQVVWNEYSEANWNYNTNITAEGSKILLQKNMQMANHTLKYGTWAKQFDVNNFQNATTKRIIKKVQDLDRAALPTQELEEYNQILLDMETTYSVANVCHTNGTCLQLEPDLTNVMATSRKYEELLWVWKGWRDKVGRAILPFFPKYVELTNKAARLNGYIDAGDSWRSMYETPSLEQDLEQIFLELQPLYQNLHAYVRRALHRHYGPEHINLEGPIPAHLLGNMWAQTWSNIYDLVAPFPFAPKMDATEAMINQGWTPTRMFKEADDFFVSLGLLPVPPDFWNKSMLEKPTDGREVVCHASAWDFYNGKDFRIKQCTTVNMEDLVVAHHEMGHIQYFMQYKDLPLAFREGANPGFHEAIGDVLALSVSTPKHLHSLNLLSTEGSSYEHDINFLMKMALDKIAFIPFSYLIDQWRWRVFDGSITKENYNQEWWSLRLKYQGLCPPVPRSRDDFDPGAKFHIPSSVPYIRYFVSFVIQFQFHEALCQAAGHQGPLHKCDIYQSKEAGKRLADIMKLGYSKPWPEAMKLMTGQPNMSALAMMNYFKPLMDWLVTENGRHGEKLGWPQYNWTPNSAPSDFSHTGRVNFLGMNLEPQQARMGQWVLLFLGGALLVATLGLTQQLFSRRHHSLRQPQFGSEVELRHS
# procedure_text: Inhibitory effect on angiotensin I-induced constriction in isolated guinea pig ileum (indirect inhibition of angiotensin I converting enzyme)
# test_parameters: angiotensin I 10^-8 M, 37° C.
property: IC50

O.O=C(O)CN1C(=O)C(N[C@@H](CSCCC2CCNCC2)C(=O)O)CCc2ccccc21 (some centres unmarked) [Example 7, monohydrate] = 1.6 nM

**Query** Name the recorded IC50 for O=C(O)CN1C(=O)[C@@H](N[C@@H](CCCCC2CCNCC2)C(=O)O)CSc2ccccc21 [CV-5975, reference compound] .
**Result** 3.5 nM
